System: HepG2
procedure_summary: cell viability relative to DMSO; higher = less toxic
experimental_conditions: 72 h; 10000 nM
Mark Yes for cell viability under 90%, No if at or over.

Example results:
INSERT INTO assay_data (compound, answer_label) VALUES
  ('CSCC[C@H](NC(=O)[C@H](CC(C)C)NC(=O)[C@@H](Cc1c[nH]c2ccccc12)NC(=O)[C@H](Cc1ccccc1)N(C)C(=O)[C@@H](Cc1c[nH]c2ccccc12)NC(=O)[C@@H](N)CCCNC(=N)N)C(N)=O', 'No'),
  ('O=C(c1c(F)ccc(NS(=O)(=O)N2CC[C@@H](F)C2)c1F)c1c[nH]c2ncc(-c3cnc(C4CC4)nc3)cc12', 'Yes'),
  ('c1coc(-c2nnc3sc(C4CCCCC4)nn23)c1', 'Yes'),
  ('CC(O)c1cc(C(=O)N[C@@H](C)Cn2ccc(-c3ccc(C#N)c(Cl)c3)n2)n[nH]1 (stereo not given in full)', 'No'),
  ('Cc1ccc2nc(N)[nH]c(=O)c2c1Sc1ccncc1', 'Yes');

Threshold test, cell viability < 90%: CN(C)C(=O)C(=O)c1cn(C)c2cc(Cl)c(C(=O)N3CCC(Cc4ccc(F)cc4)CC3)cc12
Yes

Threshold test, cell viability < 90%: COC(=O)CC[C@@H]1N=C(c2ccccn2)c2cc(Br)ccc2-n2c(C)cnc21
No

====

Tested on: Vero E6
procedure_summary: cell viability relative to DMSO; higher = less toxic
experimental_conditions: 72 h; 100 nM
The entries below are paired with their reported cell viability.
Please reply with the bare figure in % and do not write the unit itself.

Use the examples below as a reference point.
INSERT INTO results (compound, measured_value) VALUES
  ('CC(C)(C)NCC(O)COc1cc(Cl)ccc1Cl (stereo not drawn) [cloranolol]', 100),
  ('[N-]=[N+]=CC(=O)CC[C@H](N)C(=O)O [6-diazo-5-oxo-L-norleucine]', 86.8);

We now examine a further compound.
Fill in reported cell viability for this entry: O=C(NCC(=O)N1CC[C@H](N[C@H]2CC[C@@](O)(c3ccc(-c4ncccn4)cn3)CC2)C1)c1cccc(C(F)(F)F)c1
101

====

Test system: Calu-3
procedure_summary: cell viability relative to DMSO; higher = less toxic
experimental_conditions: 72 h; 1000 nM
endpoint_name: cell viability (%)
Please reply with the bare figure in % and do not write the unit itself.

Use the examples below as a reference point.
INSERT INTO results (compound, endpoint_name, measured_value) VALUES
  ('CC(CN(C)C)C(C)(O)Cc1ccc(Cl)cc1 (configuration not stated) [clobutinol]', 'cell viability', 104),
  ('CC(/C=C1\SC(=S)N(CC(=O)O)C1=O)=C\c1ccccc1 [epalrestat]', 'cell viability', 97.8),
  ('Cc1cncc(CN2CCC(=C3c4ccc(Cl)cc4CCc4cccnc43)CC2)c1 [rupatadine]', 'cell viability', 109),
  ('O=C(Cc1ccc(Cl)c(Cl)c1)N1CCCC[C@@H]1CN1CCCC1', 'cell viability', 109),
  ('CCCOc1ccc2[nH]cc(C3=CCNCC3)c2n1', 'cell viability', 96.2);

Fill in reported cell viability for this entry: O=C1NC(O)CCN1[C@@H]1O[C@H](CO)[C@@H](O)[C@H]1O (some centres not stated) [tetrahydrouridine]
101

Fill in reported cell viability for this entry: Cc1c(C)c2c(c(C)c1OC(=O)CCC(=O)OCCO)CC[C@@](C)(CCC[C@H](C)CCC[C@H](C)CCCC(C)C)O2 [tocofersolan]
104

Fill in reported cell viability for this entry: Cc1c(C2CCN(CCc3ccccc3)CC2)noc1-c1ccc(Cl)cc1
108

Fill in reported cell viability for this entry: C=C1C(=O)O[C@@H]2/C=C(\C)CC/C=C(\C)CC[C@@H]12 [costunolide]
94.5

Fill in reported cell viability for this entry: Cc1ccc(C[N+](C)(C)C)o1 [5-methylfurmethiodide]
100

Fill in reported cell viability for this entry: C[C@@H](O)[C@@H]1NC(=O)[C@H](CCCCN)NC(=O)[C@@H](Cc2c[nH]c3ccccc23)NC(=O)[C@H](Cc2ccccc2)NC(=O)[C@@H](NC(=O)[C@H](N)Cc2ccccc2)CSSC[C@@H](C(=O)N[C@H](CO)[C@@H](C)O)NC1=O [octreotide]
101

Fill in reported cell viability for this entry: COc1cc2nc(C3CC3)nc(N3CCN(c4ccccc4OC)CC3)c2cc1OC [ML314]
92.7

Fill in reported cell viability for this entry: COC(=O)CC[C@@H]1N=C(c2ccccn2)c2cc(Br)ccc2-n2c(C)cnc21 [remimazolam]
90

Fill in reported cell viability for this entry: O=C(Nc1ccccc1)[C@]12C[C@H]1/C(=N\O)c1ccccc1O2 [PHCCC]
96.4

Fill in reported cell viability for this entry: CC(=O)O[C@H]1Cc2ccccc2N(C(N)=O)c2ccccc21 [eslicarbazepine-acetate]
102

Fill in reported cell viability for this entry: CCOc1ccccc1C(=O)O [2-ethoxybenzoic-acid]
99.6

Fill in reported cell viability for this entry: CCS(=O)(=O)CCn1c([N+](=O)[O-])cnc1C [tinidazole]
98.2
